System Tested: M1 muscarinic receptor (Homo sapiens)
Construct: expressed in transfected cells; host or cells: CHO (M1-CHO)
Assay Comment: Functional mobilization of intracellular calcium (FLIPR), M1-CHO cells
Format: cell-based
Experimental Conditions: 100% efficacy is the maximum response obtained using Carbachol as a control
Measured Quantity: Emax

These solved cases illustrate the format of a correct answer.
[[record]]
compound = "CCCOc1ccc(CN2CCC3(CC2)CN(C(C)=O)Cc2ccccc23)cc1 [compound 100]"
result = "< 25%"

[[record]]
compound = "CCCOC(=O)N1C2CCC1CC(N1CCC3(CC1)CN(C(=O)N(C)C)Cc1ccccc13)C2 (stereo not shown) [compound 7]"
result = "25 to 100%"

[[record]]
compound = "CCCNC(=O)N1Cc2ccccc2C2(CCN(C3CCN(C(=O)OCC)CC3)CC2)C1 [compound 296]"
result = "25 to 100%"


Okay, next one:
So for CCC(=O)CN1CCC2(CC1)CN(C(C)=O)Cc1ccccc12 [compound 187] , the logged Emax turned out to be < 25%

---

Give Emax for every item shown.
System Tested: M4 muscarinic receptor (Homo sapiens)
Construct: expressed in transfected cells; host or cells: CHO (M4-CHO)
Sequence (P08173 whole entry): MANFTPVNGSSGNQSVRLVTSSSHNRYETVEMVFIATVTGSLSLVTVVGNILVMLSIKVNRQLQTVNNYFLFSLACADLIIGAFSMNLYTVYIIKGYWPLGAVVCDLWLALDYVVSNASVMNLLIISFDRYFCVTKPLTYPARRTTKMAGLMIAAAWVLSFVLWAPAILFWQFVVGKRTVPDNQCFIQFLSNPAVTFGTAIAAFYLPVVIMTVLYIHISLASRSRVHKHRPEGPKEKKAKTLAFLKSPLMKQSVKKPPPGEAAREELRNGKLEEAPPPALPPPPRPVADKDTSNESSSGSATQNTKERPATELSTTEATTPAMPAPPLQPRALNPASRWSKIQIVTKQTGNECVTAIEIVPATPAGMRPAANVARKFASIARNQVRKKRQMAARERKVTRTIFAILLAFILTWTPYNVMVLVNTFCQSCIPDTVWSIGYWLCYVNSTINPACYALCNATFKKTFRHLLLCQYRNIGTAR
Assay Comment: Functional mobilization of intracellular calcium (FLIPR), M4-CHO cells
Assay type: cell-based
Experimental Conditions: 100% efficacy is the maximum response obtained using Carbachol as a control

Consider the following illustrative entries.
[[record]]
compound = "CCOC(=O)N1CCC(CN2CCC3(CC2)CN(C(=O)c2cnon2)Cc2ccccc23)CC1"
result = "25 to 100%"

[[record]]
compound = "CC(=O)N1Cc2ccccc2C2(CCN(CC3CCN(C(=O)OC(C)C)CC3)CC2)C1"
result = "< 25%"

[[record]]
compound = "CCOC(=O)N1C2CCC1CC(N1CCC3(CC1)CN(S(=O)(=O)c1c(C)noc1C)Cc1ccccc13)C2 (centres unmarked)"
result = "> 100%"

[[record]]
compound = "CCOC(=O)N1CCC(N2CCC3(CC2)CN(C(=O)Nc2ccccc2)Cc2ccccc23)CC1"
result = "25 to 100%"


Provide the reported Emax of each entry below, same order.
1. CC(=O)N1Cc2ccccc2C2(CCN(C3CCN(C(=O)OC(C)C)CC3)CC2)C1
2. CCOC(=O)N1CCC(N2CCC3(CC2)CN(C(C)=O)Cc2ccccc23)CC1
3. CCOC(=O)N1CCC(CN2CCC3(CC2)CN(C(=O)c2ccno2)Cc2ccccc23)CC1
4. CCOC(=O)N1C2CCC(N3CCC4(CC3)CN(C(=O)OC3CCC3)Cc3ccccc34)CC1CC2 (centres unmarked)
5. Cc1ccc2c(c1)C1(CCN(C3CCOCC3)CC1)OC2=O
6. CC(=O)N1Cc2ccccc2C2(CCN(Cc3ccncc3)CC2)C1
7. CC(=O)N1Cc2ccccc2C2(CCN(Cc3cc4ccccc4s3)CC2)C1

Reply text:
["25 to 100%", "25 to 100%", "25 to 100%", "25 to 100%", "25 to 100%", "< 25%", "< 25%"]

Items follow; give Emax for each.
1. O=C1NC2(CCN(CC3CCCCC3)CC2)c2ccccc21
2. CCCCC(=O)N1Cc2ccccc2C2(CCN(C3CCN(C(=O)OCC)CC3)CC2)C1

Reply text:
25 to 100%
25 to 100%

---

System Tested: M1 muscarinic receptor (Homo sapiens, UniProt P11229)
Construct: expressed in transfected cells; host or cells: CHO (M1-CHO)
Sequence (P11229 1-460): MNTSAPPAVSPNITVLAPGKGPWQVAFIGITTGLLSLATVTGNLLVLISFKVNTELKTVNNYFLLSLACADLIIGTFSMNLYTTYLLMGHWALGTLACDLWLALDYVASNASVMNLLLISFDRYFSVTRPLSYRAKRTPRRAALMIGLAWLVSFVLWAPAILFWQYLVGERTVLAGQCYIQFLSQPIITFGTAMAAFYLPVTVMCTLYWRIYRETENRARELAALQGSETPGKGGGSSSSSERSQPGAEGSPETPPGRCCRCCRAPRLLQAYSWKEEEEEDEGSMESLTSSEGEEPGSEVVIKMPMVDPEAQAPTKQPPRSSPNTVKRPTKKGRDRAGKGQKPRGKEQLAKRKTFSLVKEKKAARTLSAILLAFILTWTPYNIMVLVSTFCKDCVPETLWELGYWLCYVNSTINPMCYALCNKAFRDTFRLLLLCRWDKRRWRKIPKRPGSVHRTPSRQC
Assay Comment: Functional mobilization of intracellular calcium (FLIPR), M1-CHO cells
Format: cell-based
Experimental Conditions: 100% efficacy is the maximum response obtained using Carbachol as a control
Measured Quantity: Emax

[[record]]
molecule = "CCOC(=O)N1C2CCC1CC(N1CCC3(CC1)CN(S(=O)(=O)c1c(C)noc1C)Cc1ccccc13)C2 (centres unmarked)"
system_tested = "M1 muscarinic receptor (Homo sapiens, UniProt P11229)"
measured_quantity = "Emax"
result = "25 to 100%"


For every item below, please supply its Emax.
1. O=C1NC2(CCN(CC3CCOC3)CC2)c2ccccc21 (centres unmarked)
2. CCOC(=O)N1CCC(CN2CCC3(CC2)CN(C(=O)c2cccs2)Cc2ccccc23)CC1

Reply text:
< 25%
25 to 100%
